These measurements were taken from the supplement of paper PMC9433436.

Target: E. coli RNase P holoenzyme (M1 P RNA + rnpA protein) (UniProt P0A7Y8)
Sequence: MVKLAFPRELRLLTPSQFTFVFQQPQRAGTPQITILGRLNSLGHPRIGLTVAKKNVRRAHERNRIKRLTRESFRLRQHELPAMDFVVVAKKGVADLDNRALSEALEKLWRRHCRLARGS
Assay: relative kcat/Km (krel) vs genomic leader AAAGAU (relative (reference leader = 1)); higher = faster RNase P cleavage
Conditions: fraction of substrate reacted: ~9-10% (9.79% repeat 1, 9.1% repeat 2)
In all, about 4,100 sequences were measured (“relative kcat/Km (krel) vs genomic leader AAAGAU”: median about 1.7, highest 2% from about 6.5 on). The full list was thinned out, with the highest values kept by preference.
Definition: the class of an entry is the range in lo: < 2; med: ≥ 2 and < 3; hi: ≥ 3 that contains its relative kcat/Km.

Some solved entries appear below for comparison.
>>> print(df.to_string())
   sequence_data  category_label
0         TATTCT              hi
1         TACCTT             med
2         TCCCGA              hi
3         CACTGC              hi
4         CGTTAT              hi

Req: State the class of the sequence shown: `TCCCGC`
Resp: hi

Req: State the class of the sequence shown: `CGCCGT`
Resp: lo

Req: State the class of the sequence shown: `AGAAAC`
Resp: hi

Req: State the class of the sequence shown: `CCAGAC`
Resp: med

Req: State the class of the sequence shown: `GGCGCT`
Resp: lo

Req: State the class of the sequence shown: `GGTTAA`
Resp: lo

Req: State the class of the sequence shown: `ACCCGA`
Resp: hi

Req: State the class of the sequence shown: `TGACAC`
Resp: hi

Req: State the class of the sequence shown: `CATCCC`
Resp: med

Req: State the class of the sequence shown: `CACTGT`
Resp: lo

Req: State the class of the sequence shown: `GGCTTC`
Resp: lo

----------
Biological target: E. coli RNase P holoenzyme (M1 P RNA + rnpA protein)
Sequence: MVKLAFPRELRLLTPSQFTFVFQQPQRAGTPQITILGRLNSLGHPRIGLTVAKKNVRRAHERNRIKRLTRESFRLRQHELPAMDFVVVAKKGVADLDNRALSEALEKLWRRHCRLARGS
Experiment: relative kcat/Km (krel) vs genomic leader AAAGAU (relative (reference leader = 1)); higher = faster RNase P cleavage
Settings: fraction of substrate reacted: ~9-10% (9.79% repeat 1, 9.1% repeat 2)
In all, about 4,100 sequences were measured (“relative kcat/Km (krel) vs genomic leader AAAGAU”: median about 1.7, highest 2% from about 6.5 on). The full list was thinned out, with the highest values kept by preference.
measure.name: relative kcat/Km
Numbers only.

   sequence_data      measure_name  measured
0         GCCTGC  relative kcat/Km      2.23
1         TACGCG  relative kcat/Km      1.87
2         ACCATT  relative kcat/Km       2.5

Below are some sequences; for each one, tell me its relative kcat/Km.
1. AGTTCA
2. ATGACA
3. TTATCT

Resp:
1. 2.22
2. 1.94
3. 2.77

----------
Target: E. coli RNase P holoenzyme (M1 P RNA + rnpA protein) (UniProt P0A7Y8)
Sequence: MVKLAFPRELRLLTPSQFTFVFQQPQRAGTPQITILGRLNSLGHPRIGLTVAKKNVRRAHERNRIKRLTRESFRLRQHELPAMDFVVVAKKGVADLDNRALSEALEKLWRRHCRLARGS
Assay: relative kcat/Km (krel) vs genomic leader AAAGAU (relative (reference leader = 1)); higher = faster RNase P cleavage
Conditions: fraction of substrate reacted: ~9-10% (9.79% repeat 1, 9.1% repeat 2)
The full ranking holds about 4,100 sequences; the median of “relative kcat/Km (krel) vs genomic leader AAAGAU” is about 1.7, and the highest 2% start at about 6.5. The entries come from a sample that favours the highest values as a whole.
Kindly return Fulfilled if reported relative kcat/Km is no lower than 2; return Not fulfilled if it is lower.

   sequence_data  category_label
0         TTTGCC   Not fulfilled
1         TTCAGA       Fulfilled
2         TGCAGA   Not fulfilled
3         CCTTCA   Not fulfilled
4         ATCAGC       Fulfilled
5         CCTTTA   Not fulfilled

Req: Given the entry `TGCTTT` , answer whether its relative kcat/Km meets or surpasses 2.
Resp: Fulfilled

Req: Given the entry `AGCTTT` , answer whether its relative kcat/Km meets or surpasses 2.
Resp: Fulfilled

Req: Given the entry `ATCCTA` , answer whether its relative kcat/Km meets or surpasses 2.
Resp: Fulfilled

Req: Given the entry `TTCTTT` , answer whether its relative kcat/Km meets or surpasses 2.
Resp: Fulfilled

Req: Given the entry `GCTTAT` , answer whether its relative kcat/Km meets or surpasses 2.
Resp: Fulfilled

Req: Given the entry `GGGTGC` , answer whether its relative kcat/Km meets or surpasses 2.
Resp: Not fulfilled

Req: Given the entry `ATCTTT` , answer whether its relative kcat/Km meets or surpasses 2.
Resp: Fulfilled

Req: Given the entry `GATTGA` , answer whether its relative kcat/Km meets or surpasses 2.
Resp: Fulfilled

Req: Given the entry `CTTCCC` , answer whether its relative kcat/Km meets or surpasses 2.
Resp: Not fulfilled

Req: Given the entry `GGGATG` , answer whether its relative kcat/Km meets or surpasses 2.
Resp: Not fulfilled

Req: Given the entry `TATTGA` , answer whether its relative kcat/Km meets or surpasses 2.
Resp: Fulfilled

Req: Given the entry `CATTGC` , answer whether its relative kcat/Km meets or surpasses 2.
Resp: Fulfilled

Req: Given the entry `ATCCCA` , answer whether its relative kcat/Km meets or surpasses 2.
Resp: Fulfilled

Req: Given the entry `GGCCGC` , answer whether its relative kcat/Km meets or surpasses 2.
Resp: Not fulfilled

Req: Given the entry `TCTCGG` , answer whether its relative kcat/Km meets or surpasses 2.
Resp: Not fulfilled

Req: Given the entry `GACTTC` , answer whether its relative kcat/Km meets or surpasses 2.
Resp: Fulfilled

Req: Given the entry `CCTTAT` , answer whether its relative kcat/Km meets or surpasses 2.
Resp: Fulfilled

----------
Please respond with reported relative kcat/Km for every item in the list.
Target: E. coli RNase P holoenzyme (M1 P RNA + rnpA protein) (UniProt P0A7Y8)
Sequence: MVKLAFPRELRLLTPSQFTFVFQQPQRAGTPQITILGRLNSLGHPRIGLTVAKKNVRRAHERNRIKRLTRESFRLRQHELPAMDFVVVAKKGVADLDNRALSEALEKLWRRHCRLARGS
Assay: relative kcat/Km (krel) vs genomic leader AAAGAU (relative (reference leader = 1)); higher = faster RNase P cleavage
Details: fraction of substrate reacted: ~13-16% (15.68% repeat 1, 13.17% repeat 2)
Whole data set: some 4,100 sequences, median “relative kcat/Km (krel) vs genomic leader AAAGAU” near 1.7, cut for the highest 2% near 6.5. The sample as a whole holds a higher share of the highest values than the screen did.
Give bare numbers.

>>> df
   sequence_data  measured
0         CTCCTT      4.28
1         CGTTAG      2.22

Below are some sequences; for each one, tell me its relative kcat/Km.
1. ACGACA
2. TCTCGA
3. TGATGT

Resp:
1: 1.62; 2: 3.16; 3: 1.13

Below are some sequences; for each one, tell me its relative kcat/Km.
1. TTGTTC
2. GGTTAC
3. GTCGGA
4. TCATAA
5. TTCAGT
6. ATCCAG
7. ATCATA

Resp:
2.08
1.09
1.67
4.17
2.35
1.77
4.31

----------
Biological target: E. coli RNase P holoenzyme (M1 P RNA + rnpA protein) (UniProt P0A7Y8)
Sequence: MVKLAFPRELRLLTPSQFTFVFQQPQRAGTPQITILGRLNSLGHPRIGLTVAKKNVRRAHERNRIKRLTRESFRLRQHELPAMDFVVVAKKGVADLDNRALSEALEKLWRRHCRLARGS
Assay: relative kcat/Km (krel) vs genomic leader AAAGAU (relative (reference leader = 1)); higher = faster RNase P cleavage
Conditions: fraction of substrate reacted: ~26-29% (28.66% repeat 1, 26.4% repeat 2)
The full ranking holds about 4,100 sequences; the median of “relative kcat/Km (krel) vs genomic leader AAAGAU” is about 1.7, and the highest 2% start at about 6.5. The entries come from a sample that favours the highest values as a whole.
measure.name: relative kcat/Km

Below, each entry is followed by its recorded relative kcat/Km result.
   sequence_data      measure_name  measured
0         TAACTC  relative kcat/Km      2.26
1         AACAGA  relative kcat/Km      5.65
2         TTGCAA  relative kcat/Km      2.92

Below are some sequences; for each one, tell me its relative kcat/Km.
1. TTTCTC
2. CATCGT
3. GCCTAT
4. TTCTTG

Resp:
1: 2.91; 2: 1.54; 3: 6.22; 4: 4
